molecular target: T1, HLA-DR DRB1*0401 (human); assay: radiolabeled-peptide inhibition, purified HLA-DR; settings: remark: other sources report otherwise
T1 chain 1: not shown
T1 chain 2: not shown
measured metric: IC50 (nM)
Give bare numbers, in nM.

// IC50 value for SLTLQGLGISWLGLR [9019.0055] : 143
